These entries and their values trace back to paper PMC3537913.

# test name: Sorafenib first-dose pharmacokinetics in patients
# Assay type: in vivo, human
# test context: human, plasma, po, 110 mg/m2
Structures can show the parent of a compound that is named as a salt.
quantity measured: half-life (h)
Unit h implied. Number only.

query: # get_value(readout='half-life', item= CNC(=O)c1cc(Oc2ccc(NC(=O)Nc3ccc(Cl)c(C(F)(F)F)c3)cc2)ccn1 [sorafenib, Sorafenib tosylate] )
result: 10
